This collection of values is drawn from patent US9670189B2.

molecular target: human PDE4B1 (Homo sapiens); construct: host or cells: Sf9 cells; assay: cAMP HTRF assay to determine the activity of hPDE4B1; type: biochemical; details: 1 μM test concentration; human recombinant PDE4B1, cAMP 40 nM; read-out: Inhibition at 1 μM test concentration [%] (Percentage inhibition of PDE4B)
Sequence (Q07343 whole entry): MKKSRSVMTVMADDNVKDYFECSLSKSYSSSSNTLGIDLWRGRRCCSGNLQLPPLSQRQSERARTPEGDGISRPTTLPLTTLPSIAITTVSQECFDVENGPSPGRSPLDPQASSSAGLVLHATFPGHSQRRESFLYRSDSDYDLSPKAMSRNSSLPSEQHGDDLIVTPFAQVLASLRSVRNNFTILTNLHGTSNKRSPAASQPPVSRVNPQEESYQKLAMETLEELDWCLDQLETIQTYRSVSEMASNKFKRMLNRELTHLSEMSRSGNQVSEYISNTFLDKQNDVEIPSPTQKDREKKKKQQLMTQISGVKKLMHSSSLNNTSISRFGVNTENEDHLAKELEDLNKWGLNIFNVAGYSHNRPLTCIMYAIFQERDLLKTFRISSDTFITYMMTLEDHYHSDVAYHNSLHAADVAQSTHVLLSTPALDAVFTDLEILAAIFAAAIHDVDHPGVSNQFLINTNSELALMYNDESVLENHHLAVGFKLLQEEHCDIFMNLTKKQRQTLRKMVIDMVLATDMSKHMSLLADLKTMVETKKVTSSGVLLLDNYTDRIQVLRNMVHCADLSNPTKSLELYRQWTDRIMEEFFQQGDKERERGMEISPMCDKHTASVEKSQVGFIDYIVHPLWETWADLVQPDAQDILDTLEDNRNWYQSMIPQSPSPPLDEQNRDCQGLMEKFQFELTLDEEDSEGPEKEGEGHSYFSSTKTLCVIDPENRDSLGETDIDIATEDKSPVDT
METRIC: inhibition at 1 µM (%)

# COMPOUND, METRIC, RESULT_NUMBER
rows = [
    ("O=C(O)Cc1ccc(Oc2nc(-c3ccc(Cl)s3)nc3c2CSCC3)cc1 [Compound 22]", "inhibition at 1 µM", 50),
    ("O=C(O)c1ccc(Oc2nc(-c3ccc(F)c(F)c3)nc3c2CCC3)cc1 [Compound 6]", "inhibition at 1 µM", 55),
    ("O=C(O)Cc1ccc(Oc2nc(-c3ccc(Cl)s3)nc3c2CCC3)cc1 [Compound 7]", "inhibition at 1 µM", 77),
    ("COc1ccc(-c2nc3c(c(Oc4ccc(C(=O)O)cc4)n2)CCC3)cc1Cl [Compound 5]", "inhibition at 1 µM", 71),
    ("O=C(O)Cc1ccc(Oc2nc(-c3ccc(Cl)s3)nc3c2CS(=O)(=O)CC3)cc1 [Compound 24]", "inhibition at 1 µM", 33),
    ("O=C(O)Cc1ccc(Oc2nc(-c3cncs3)nc3c2CCC3)cc1 [Compound 45]", "inhibition at 1 µM", 55),
    ("COc1ccc(-c2nc3c(c(Oc4ccc(CC(=O)O)cc4)n2)CS(=O)(=O)C3)cc1Cl [Compound 17]", "inhibition at 1 µM", 95),
    ("O=C(O)Cc1ccc(Oc2nc(-c3ccc(Cl)s3)nc3c2C[S+]([O-])C3)cc1 (centres unmarked) [Compound 20]", "inhibition at 1 µM", 103),
]
